Hey, just so you know, these numbers are from PubChem BioAssay AID1626.

tested on: M. tuberculosis H37Rv growth inhibition; assay: M. tuberculosis H37Rv growth inhibitors, H37Rv strain (AID 1626); conditions: measured here: IC90 against H37Rv
Readout Label: IC90 (µM)
Number only, in µM; omit the unit.

Before answering, review these 5 worked examples.
Compound: COc1ccc(N2C(=O)C(F)(F)C2c2ccccc2F)cc1 (configuration not stated)
IC90 (µM): 12.1

Compound: Cc1cc(C)c(N=Cc2c(O)n(-c3nccs3)c(=O)c3ccccc23)c(C)c1
IC90 (µM): 71.4

Compound: COc1cc(CNCc2ccccn2)ccc1OCc1ccc(Cl)cc1Cl
IC90 (µM): 9.96

Compound: Cc1[nH]n2c(=O)cc(C(C)(C)C)nc2c1-c1ccccc1
IC90 (µM): 2.91

Compound: CN(C)c1ccc(NC(=O)Cn2cc3c(n2)CCCC3)cc1
IC90 (µM): 18.6

Query the reported IC90 for M. tuberculosis H37Rv growth inhibition; item: CCCN(CCC)CC(O)Cn1cc(/C=C/C(=O)c2ccccc2)c2ccccc21 (configuration not stated)
1.66

Next record, please: Nc1c(C(=O)NCCc2ccccc2)c2nc3ccccc3nc2n1CCN1CCOCC1
25.4

Next record, please: Fc1cccc2sc(Nc3nnc(-c4ccco4)o3)nc12
3.19

Next record, please: O=C(Nc1nnc(-c2ccncc2)o1)c1ccc(Br)s1
29.7

Next record, please: Cc1ccc(CNCc2cc3c(C(C)(C)C)nn(-c4ccccc4)c3[nH]c2=O)cc1
11

Next record, please: COc1ccc(CNCc2cc3c(C(C)(C)C)nn(-c4ccccc4)c3[nH]c2=O)cc1
13

Next record, please: O=C1Nc2ccccc2/C1=N\N=C\C1=C(N2CCOCC2)C(=C\c2ccccc2)/CC1
1.86

Next record, please: CCCCOC(=O)CSc1nc(N)c(C#N)c(-c2ccc(OC)cc2)c1C#N
2.39

Next record, please: Oc1ccccc1N1CCN(c2ncnc3sc(-c4ccccc4)cc23)CC1
13

Next record, please: COC(=O)C(CC(C)C)NC(=O)/C=C/c1ccc(Cl)cc1 (configuration not stated)
6.5

----------
tested on: M. tuberculosis H37Rv growth inhibition; experiment: M. tuberculosis H37Rv growth inhibitors, H37Rv strain (AID 1626); conditions: measured here: IC90 against H37Rv
Label yes (1) when IC90 < 6 µM; otherwise no (0).

Field: example entries. Status: answers known.
Molecule: Clc1ccc(COC(Cn2ccnc2)c2ccc(Cl)cc2Cl)cc1 (stereo not given)
Test Target: M. tuberculosis H37Rv growth inhibition
Label: yes (1)
//
Molecule: Cc1cccc(-n2c(/C=C/c3ccc([N+](=O)[O-])o3)nc3ccccc3c2=O)c1
Test Target: M. tuberculosis H37Rv growth inhibition
Label: no (0)

API: query returns whether the molecule falls strictly under 6 µM in IC90. Query: COc1ccc(NC(C#N)c2ccccc2OCc2ccccc2)cc1 (stereo not given)
no (0)

Next record, please: O=C(Nc1cc(C(F)(F)F)cc(C(F)(F)F)c1)Nc1cnn(-c2ccc([N+](=O)[O-])cc2)c1C(F)(F)F
yes (1)

Next record, please: OCCN1CCN(CC(O)COc2ccc(C34CC5CC(CC(C5)C3)C4)cc2)CC1 (stereo not given)
no (0)

Next record, please: CCOc1ccc(NC(=O)c2ccccc2CO)cc1
no (0)

Next record, please: CCN(CC)CCOC(=O)c1ccc(N/C=C(/C#N)c2nc(-c3ccc4c(c3)OCO4)cs2)cc1
no (0)

Next record, please: CCc1cccc2c1NC(=O)C21N2CCCC2C(C(=O)c2ccc3ccccc3c2)C12C(=O)Nc1ccccc12 (stereo not given)
no (0)

Next record, please: O=Cc1ccc2oc3nc4n(c(=O)c3c(=O)c2c1)CCCS4
yes (1)

Next record, please: CC1CCN(C(=O)COC(=O)c2cc3ccccc3cc2O)CC1
yes (1)

----------
system: M. tuberculosis H37Rv growth inhibition; test: M. tuberculosis H37Rv growth inhibitors, H37Rv strain (AID 1626); settings: measured here: Vero cell cytotoxicity
Each entry below carries its reported CC50.
Number only, in µM; omit the unit.

Before answering, review these 4 worked examples.
Cpd Smiles: COc1ccc(-c2ccc([C@H]3[C@@H]4C=CCC[C@@]4(C)C(=O)N3Cc3ccccc3)c(F)c2)cc1OC
Test Target: M. tuberculosis H37Rv growth inhibition
Scale Unit: µM
CC50: 39.2
//
Cpd Smiles: CN(C)CCCN(C(=O)CCc1ccccc1)c1nc2ccc(Br)cc2s1
Test Target: M. tuberculosis H37Rv growth inhibition
Scale Unit: µM
CC50: 16.7
//
Cpd Smiles: O=C(/C=C/c1cccs1)Nc1cccc(NC(=O)/C=C/c2cccs2)n1
Test Target: M. tuberculosis H37Rv growth inhibition
Scale Unit: µM
CC50: 28
//
Cpd Smiles: COc1cc(/C=C/c2ccc3c(Br)cc(Br)c(O)c3n2)ccc1O
Test Target: M. tuberculosis H37Rv growth inhibition
Scale Unit: µM
CC50: 14.5

Query the reported CC50 for M. tuberculosis H37Rv growth inhibition; item: COc1cc(CNCCc2ccccc2)cc(Cl)c1OCc1ccccc1
27.8

Next record, please: Cc1ccc(NC(=O)c2ccc([N+](=O)[O-])o2)c(C)c1
13.4

----------
test system: M. tuberculosis H37Rv growth inhibition; assay: M. tuberculosis H37Rv growth inhibitors, H37Rv strain (AID 1626)
pIC50: −log10 of the molar value.
Each entry below carries its reported pIC50.

Before answering, review these 5 worked examples.
Compound: COC(=O)C(CC(C)C)NC(=O)/C=C/c1ccccc1Cl (stereo not drawn)
Test Target: M. tuberculosis H37Rv growth inhibition
pIC50: 5.33

Compound: N#Cc1c(N2CCN(C(=O)c3ccco3)CC2)nc(-c2ccccc2)c2c1CCCC2
Test Target: M. tuberculosis H37Rv growth inhibition
pIC50: 5.02

Compound: C#CCOCCOCCOCCNc1nc(N2CCN(C(=O)[C@H](Cc3ccc(O)cc3)n3cc([C@@H](N)CC(C)C)nn3)CC2)nc(N2CCN(C(=O)[C@H](Cc3cc4ccccc4[nH]3)n3cc([C@@H](N)CC(C)C)nn3)CC2)n1
Test Target: M. tuberculosis H37Rv growth inhibition
pIC50: 4.93

Compound: COc1ccc(/C=C2\Sc3ccc(C(=O)NCc4cccnc4)cc3N(C)C2=O)cc1OC
Test Target: M. tuberculosis H37Rv growth inhibition
pIC50: 4.89

Compound: CCCCOC(=O)c1ccc(NC(=O)C(=O)NCCN(C)C)cc1
Test Target: M. tuberculosis H37Rv growth inhibition
pIC50: 4.83

What does the record list as pIC50 for O=C(Nc1cccc(NC(=O)c2cccs2)c1)c1ccc([N+](=O)[O-])o1 ?
5.10

Next record, please: Oc1c(CN2CCc3ccccc3C2)cc(Cl)c2cccnc12
5.12

Next record, please: CC(=O)Nc1cccc(C(=O)/C=C/c2ccc(Br)cc2)c1
5.19

Next record, please: CCCOC(=O)c1ccc(NC(=O)C(=O)NCCN(CC)CC)cc1
4.27

Next record, please: Cc1ccc(-n2c(-c3ccc(Br)cc3)c[n+]3c2CCc2ccc4cccnc4c2-3)cc1
6.12

Next record, please: N=C(N)SCc1cn(-c2ccccc2)nc1-c1ccc(Br)cc1
5.17

Next record, please: CCC(=O)Nc1nc(-c2cc([N+](=O)[O-])cs2)cs1
> 6.71

----------
test system: M. tuberculosis H37Rv growth inhibition; test: M. tuberculosis H37Rv growth inhibitors, H37Rv strain (AID 1626); settings: measured here: Vero cell cytotoxicity
Readout Label: CC50 (µM)
Number only, in µM; omit the unit.

Before answering, review these 4 worked examples.
Molecule: COc1ccc(/C=C2\SC(=N)N(c3nccs3)C2=O)cc1OC
Scale Unit: µM
Measured: 17.9
--
Molecule: COc1cccc(C(=O)Oc2ccccc2/C=C\C(=O)c2cc3ccccc3o2)c1
Scale Unit: µM
Measured: 11.4
--
Molecule: OC(CNCCc1ccc(C(F)(F)F)cc1)COc1cccc2ccccc12 (configuration not stated)
Scale Unit: µM
Measured: 13.7
--
Molecule: OC(c1cc(-c2ccc(Cl)cc2)nc2ccccc12)C1CCCCN1 (configuration not stated)
Scale Unit: µM
Measured: 7.35

Alright, here's another molecule for you.
What does the record list as CC50 for COc1ccc(-c2nn(-c3ccccc3)cc2/C=N/N=C(N)N)cc1OC ?
32.3

----------
tested on: M. tuberculosis H37Rv growth inhibition; test: M. tuberculosis H37Rv growth inhibitors, H37Rv strain (AID 1626); conditions: measured here: Vero cell cytotoxicity
Each entry below carries its reported CC50.

Before answering, review these 5 worked examples.
Molecule: CCCn1c(NC(=O)c2cccc(C)c2C)nc2ccccc21
Test Target: M. tuberculosis H37Rv growth inhibition
CC50: 24.7 µM

Molecule: COc1ccc(C(=O)CSc2nc(-c3ccccn3)nc(C)c2Cl)cc1
Test Target: M. tuberculosis H37Rv growth inhibition
CC50: > 40 µM

Molecule: CC(C)Cn1c(N)c(C(=O)COC(=O)c2cnc(Cl)c(Cl)c2)c(=O)n(C)c1=O
Test Target: M. tuberculosis H37Rv growth inhibition
CC50: > 40 µM

Molecule: COc1ccc(-c2csc(NC(C)c3nc4cc(Cl)c(N5CCCCC5)cc4n3CCOCCO)n2)cc1 (stereo unspecified)
Test Target: M. tuberculosis H37Rv growth inhibition
CC50: > 40 µM

Molecule: Nc1ccc2c(c1)C(=O)C(=O)c1ccccc1-2
Test Target: M. tuberculosis H37Rv growth inhibition
CC50: 3.16 µM

Alright, here's another molecule for you.
What does the record list as CC50 for CCOC(=O)c1cnc2ccc(OCC)cc2c1NCc1ccccc1 ?
> 40 µM
